// provenance: PubChem BioAssay (NCATS)

Test system: CP329
Assay: qHTS profiling for inhibitors of Plasmodium falciparum proliferation (AID 504749); note: nearly all actives have a fitted effect of over 60% in size
Conditions: P. falciparum in erythrocytes, SYBR Green DNA, 72 h; series mostly up to 28.7 µM
Results filed as inconclusive are left out. Active and inactive are the calls of the source. Calls come from the whole dose curve; as a rule, active = well fitted inhibition curve with a large enough effect; inconclusive = small, poorly fitted or top-dose-only effect; inactive = flat fitted curve, though single readings scatter.
Outcomes you can answer with include only these: active, inactive

Please review the entries below; each comes with its answer.
[[record]]
given_smiles = "C#C[C@]1(O)CC[C@H]2[C@@H]3CCc4cc(OC)ccc4[C@H]3CC[C@@]21C"
class_name = "inactive"

[[record]]
given_smiles = "NC(=O)C1(N2CCCCC2)CCN(CCCC(=O)c2ccc(F)cc2)CC1"
class_name = "inactive"

[[record]]
given_smiles = "CCCCCCCCCCCCCCCCO"
class_name = "inactive"

[[record]]
given_smiles = "CN(Cc1ccc(C(C)(C)C)cc1)Cc1cccc2ccccc12"
class_name = "inactive"

[[record]]
given_smiles = "COc1cc(C(=O)N2CCCCCCC2)cc(OC)c1OC"
class_name = "inactive"


Would you kindly look at the next entry?
Data request: // outcome(item) with item = CCCCCCCCCCCCOCCOCCOCCOCCOCCOCCOCCOCCOCCO
Data returned: inactive

* * *

Test: qHTS drug screen for cell cycle checkpoint inhibitors in PARPi-resistant BRCA-mutant ovarian cancer cell lines. (AID 1963452)
Settings: PEO1/OlaR viability, CellTiter-Glo luminescence, 96 h; measured here: PEO4 Z-AUC; stronger effect = lower value
From the text: Women's Malignancies Branch, Center for Cancer Research (CCR), National Cancer Institute (NCI), National Institutes of Health (NIH), Bethesda, MD Poly (ADP-ribose) polymerase inhibitors (PARPis) have changed the treatment paradigm in breast cancer gene (BRCA) - mutant high-grade serous ovarian carcinoma (HGSC). […] 6; Detection; Luminescence, PHERAstar (BMG Labtech) plate reader. […] 6. Luminescence readings were taken using PHERAstar (BMG Labtech). […]
Z-AUC under 0.5 gets Yes, anything at or over 0.5 gets No.

[[record]]
given_smiles = "Nc1nc(Cl)nc2c1ncn2[C@@H]1O[C@H](CO)[C@@H](O)[C@@H]1F"
class_name = "Yes"


Data request: Below 0.5 on Z-AUC? Entry Cc1ccc(O)c([C@H](CCN(C(C)C)C(C)C)c2ccccc2)c1
Data returned: Yes

Data request: Consider the compound CC(=O)O[C@H]1C[C@@H]2CC[C@@H]3[C@H](CC[C@@]4(C)[C@H]3C[C@H]([N+]3(C)CCCCC3)[C@@H]4OC(C)=O)[C@@]2(C)C[C@@H]1N1CCCCC1 . Is its Z-AUC strictly less than 0.5?
Data returned: No

Data request: Answer whether the compound C=C[C@H]1CN2CC[C@H]1C[C@@H]2[C@@H](O)c1ccnc2ccc(OC)cc12 has Z-AUC strictly less than 0.5
Data returned: Yes

Data request: Strictly below 0.5: is that where Z-AUC of CCCCCCCCCCC[C@@H](C[C@@H]1OC(=O)[C@H]1CCCCCC)OC(=O)[C@H](CC(C)C)NC=O sits?
Data returned: No

Data request: Consider Cc1ccc(-c2ncc(Cl)cc2-c2ccc(S(C)(=O)=O)cc2)cn1 . Does its Z-AUC lie strictly below 0.5?
Data returned: No

* * *

System: CP325
Assay: qHTS profiling for inhibitors of Plasmodium falciparum proliferation (AID 504749); note: nearly all actives have a fitted effect of over 60% in size
Details: P. falciparum in erythrocytes, SYBR Green DNA, 72 h; series mostly up to 28.7 µM
Inconclusive results are not listed. Activity calls are given as the source filed them. Calls come from the whole dose curve; as a rule, active = well fitted inhibition curve with a large enough effect; inconclusive = small, poorly fitted or top-dose-only effect; inactive = flat fitted curve, though single readings scatter.
Parameter call: string, one of active, inactive

Solved cases (3 shown):
[[record]]
molecule = "O=C(CCN1CCN2CCCC2C1)N1c2ccccc2Sc2ccc(Cl)cc21 (stereo unspecified)"
class_name = "inactive"

[[record]]
molecule = "Oc1ccccc1C=NCc1ccccc1"
class_name = "inactive"

[[record]]
molecule = "Cc1ccc(O)c([C@H](CCN(C(C)C)C(C)C)c2ccccc2)c1"
class_name = "active"


Data request: Field: outcome | Entry: CCOC(=O)c1c(N)sc2c1CCN(Cc1ccccc1)C2
Data returned: active

Data request: Assay result, entry CCOC(=O)[C@H](CCc1ccccc1)N[C@@H](C)C(=O)N1[C@H](C(=O)O)C[C@H]2CCCC[C@@H]21 — outcome?
Data returned: inactive

Data request: Outcome logged for CC(=O)NC(=O)c1ccccc1O in this assay:
Data returned: inactive

* * *

Test system: FAB9
Assay: qHTS profiling for inhibitors of Plasmodium falciparum proliferation (AID 504749); note: nearly all actives have a fitted effect of over 60% in size
Conditions: P. falciparum in erythrocytes, SYBR Green DNA, 72 h; series mostly up to 28.7 µM
Records with an inconclusive call do not appear. Activity calls are given as the source filed them. Calls come from the whole dose curve; as a rule, active = well fitted inhibition curve with a large enough effect; inconclusive = small, poorly fitted or top-dose-only effect; inactive = flat fitted curve, though single readings scatter.
TEST_READOUT: outcome

A selection of reference data follows.
[[record]]
compound = "O=C(O)P(=O)(O)O"
result = "inactive"

[[record]]
compound = "Cc1ccc(-c2ncc(Cl)cc2-c2ccc(S(C)(=O)=O)cc2)cn1"
result = "inactive"

[[record]]
compound = "Nc1nc(-c2ccccc2)c(Br)c(=O)[nH]1"
result = "inactive"

[[record]]
compound = "COc1ccc(C(=O)c2ccccc2)c(O)c1"
result = "inactive"

[[record]]
compound = "COc1cc(C(=S)N2CCOCC2)ccc1O"
result = "inactive"

[[record]]
compound = "NS(=O)(=O)c1cc(C(=O)O)cc(N2CCCC2)c1Oc1ccccc1"
result = "inactive"

[[record]]
compound = "OCc1ccccn1"
result = "inactive"

[[record]]
compound = "c1ccc(-c2nc[nH]c2-c2ccccc2)cc1"
result = "inactive"

[[record]]
compound = "NC(N)=NCc1cccc(I)c1"
result = "inactive"

[[record]]
compound = "Nc1ccc(S(=O)(=O)NCc2ccccc2)cc1"
result = "inactive"


Data request: Given CN1CCN(C2=Nc3cc(F)ccc3Cc3ccccc32)CC1 , state its recorded outcome.
Data returned: inactive

Data request: # input compound: O=C(NCCc1c[nH]c2ccccc12)c1cccnc1 ; wanted: its outcome
Data returned: inactive

Data request: Return reported outcome; argument: O=C(Nc1ccc([N+](=O)[O-])cc1)Nc1ccc([N+](=O)[O-])cc1
Data returned: inactive

Data request: Requested read-out: outcome. Entry: COc1ccc(/C=N/NC(=O)c2ccncc2)cc1OC
Data returned: inactive

Data request: I would be grateful if you could share the reported outcome for Cc1cccc(C)c1NC(=O)c1ccccc1C(=O)O .
Data returned: inactive

Data request: Look up outcome for this compound: O=C(O)CCC(=O)Nc1ccc(S(=O)(=O)Nc2nccs2)cc1
Data returned: inactive

Data request: Find the recorded outcome belonging to CC(C)=CCOc1ccc(/C=C/C(=O)c2ccc(OCC=C(C)C)cc2OCC(=O)O)cc1 and report it.
Data returned: inactive

Data request: // outcome lookup, key: COc1ccc(C(=O)c2ccccc2O)c(O)c1
Data returned: inactive

Data request: What value of outcome has been reported for the following compound? CCOC(=O)C(C#N)=C(c1ccccc1)c1ccccc1
Data returned: inactive

* * *

Biological target: Protein phosphatase 1D (Homo sapiens)
Assay: RapidFire Mass Spectrometry qHTS Assay for Modulators of WT P53-Induced Phosphatase 1 (WIP1) (AID 1347424);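 note: amount of dephosphorylated VEPPL-S-QETFS peptide product formed by WIP1; plate controls were DMSO wells for no effect and GSK830371 inhibitor control at 10 µM for full effect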
Details: WIP1 dephosphorylation of phosphopeptide, RapidFire MS; series mostly up to 63 µM
Records with an inconclusive call do not appear. Active and inactive are the calls of the source. The call rests on the fitted dose curve; in most records, active means well fitted inhibition curve with a large enough effect; inconclusive means small, poorly fitted or top-dose-only effect; inactive means no such curve, though single readings can be large or run the other way.
// allowed return values: 1.0 for active, 0.0 for inactive

Data request: Fill in: this test's call for CC(C)Nc1cccnc1N1CCN(C(=O)c2cc3cc(NS(C)(=O)=O)ccc3[nH]2)CC1 is ___
Data returned: 0.0

Data request: Identify the outcome logged in this assay for the compound shown: O=C(O)CCc1nc2ccccc2[nH]1
Data returned: 0.0

Data request: Can you look up the reported call for C#C[C@]1(O)CC[C@H]2[C@@H]3CCC4=Cc5oncc5C[C@]4(C)[C@H]3CC[C@@]21C for me?
Data returned: 0.0

Data request: Per the assay record, what outcome was assigned to OC(C#CCN1CCCC1)(c1ccccc1)c1ccccc1 ?
Data returned: 0.0

Data request: # outcome recorded in this test, key = O=C(c1ccc(F)cc1)C1CCN(CCn2c(=S)[nH]c3ccccc3c2=O)CC1
Data returned: 0.0

Data request: Assay outcome for NS(=O)(=O)c1ccc(Cl)c(S(N)(=O)=O)c1 : what was it?
Data returned: 0.0

Data request: Short answer needed: outcome of this test for C=C[C@H]1CN2CC[C@H]1C[C@H]2[C@H](O)c1ccnc2ccc(OC)cc12 ?
Data returned: 0.0

* * *

Assay: qHTS Assay for Lipid Storage Modulators (AID 1519)
Settings: Drosophila S3 cells, BODIPY lipid droplet/cell ratio, laser cytometry; measured here: lipid channel max response; cells loaded with oleic acid
Records with an inconclusive call do not appear.
TEST_READOUT: max response

[[record]]
molecule = "CC(C)NCC(O)c1ccc2ccccc2c1 (stereo unspecified)"
result = "21.3%"

[[record]]
molecule = "CCC(Cc1c(I)cc(I)c(N)c1I)C(=O)O (stereo unspecified)"
result = "27.1%"

[[record]]
molecule = "O=C(O)P(=O)(O)O"
result = "24.7%"

[[record]]
molecule = "O=C(O)c1ccc(S(=O)(=O)N(Cl)Cl)cc1"
result = "34.6%"

[[record]]
molecule = "C[N+]12CCC(CC1)C(OC(=O)C(O)(c1ccccc1)c1ccccc1)C2 (stereo unspecified)"
result = "15.6%"

[[record]]
molecule = "NC(N)=NCc1cccc(I)c1"
result = "-12.1%"

[[record]]
molecule = "CCc1cc(Cl)c(OC)c(C(=O)NC[C@@H]2CCCN2CC)c1O"
result = "-19.5%"

[[record]]
molecule = "Cc1c(-c2ccccc2)oc2c(C(=O)OCCN3CCCCC3)cccc2c1=O"
result = "7.37%"

[[record]]
molecule = "Nc1ccc(C(=O)NCC(=O)O)cc1"
result = "0.146%"

[[record]]
molecule = "CCCCNc1ccc(C(=O)OCCOCCOCCOCCOCCOCCOCCOCCOCCOC)cc1"
result = "-4.96%"


Data request: Given the entry CCOc1ccc(NC(C)=O)cc1 , report its measured max response.
Data returned: -4.32%

Data request: Fill blank: measured max response of the molecule CCN(CC)CCOc1ccc2c(c1)C(=O)c1cc(OCCN(CC)CC)ccc1-2 is ____.
Data returned: 9.04%
